MIC overview
- System: EC878 E. coli tolC
- assay explanation: broth dilution MIC, E. coli EC878
- Format: cell-based
- experimental setup: Escherichia coli
// units = µg/mL; emit number, no label

compound	MIC / µg/mL
CC[C@H]1OC(=O)[C@H](C)C(=O)[C@H](C)[C@@H](O[C@@H]2OC(C)CC(N(C)C)C2O)[C@](C)(OC)C[C@@H](C)CN[C@H](C)[C@H]2N(CCCCn3cc(-c4ccccn4)nn3)C(=O)O[C@]12C (stereo partly drawn)	0.5
CC[C@H]1OC(=O)[C@H](C)C(=O)[C@H](C)[C@@H](O[C@@H]2OC(C)CC(N(C)C)C2O)[C@](C)(OC)C[C@@H](C)CN(C(C)=O)[C@H](C)[C@H]2N(CCCCn3cc(-c4ccccn4)nn3)C(=O)O[C@]12C (stereo partly drawn)	4
CC[C@H]1OC(=O)[C@H](C)C(=O)[C@H](C)[C@@H](O[C@@H]2OC(C)CC(N(C)C)C2O)[C@](C)(OC)C[C@@H](C)CN(C(C)=O)[C@H](C)[C@H]2N(CCCCn3cc(-c4nccs4)nn3)C(=O)O[C@]12C (stereo partly drawn)	4
CCC[C@@H]1C[C@@H](C(=O)N[C@@H]([C@H]2O[C@H](SC)[C@H](O)[C@@H](O)[C@H]2O)[C@H](C)Cl)N(C)C1 [Clindamycin, clindamycin, reference compound]	2
CC[C@H]1OC(=O)C(C)(F)C(=O)[C@H](C)[C@@H](O[C@@H]2OC(C)CC(N(C)C)C2O)[C@](C)(OC)C[C@@H](C)CN[C@H](C)[C@H]2N(CCCCn3cc(-c4ccccn4)nn3)C(=O)O[C@]12C (stereo partly drawn)	1

## Task Look at this compound and give its reported MIC. CC[C@H]1OC(=O)[C@H](C)C(=O)C[C@@H](O[C@@H]2OC(C)CC(N(C)C)C2O)[C@](C)(OC)C[C@@H](C)CN[C@H](C)[C@H]2N(CCCCn3cc(-c4ccccn4)nn3)C(=O)O[C@]12C (stereo partly drawn)
## Result 2

## Task Look at this compound and give its reported MIC. CC[C@H]1OC(=O)[C@H](C)C(=O)[C@H](C)[C@@H](O[C@@H]2OC(C)CC(N(C)C)C2O)[C@](C)(OC)C[C@@H](C)CN(C(C)=O)[C@H](C)[C@H]2N(CCCCn3cc(-c4cccc(N)c4)nn3)C(=O)O[C@]12C (stereo partly drawn)
## Result 4

## Task Look at this compound and give its reported MIC. CC[C@H]1OC(=O)[C@H](C)C(=O)C[C@@H](O[C@@H]2OC(C)CC(N(C)C)C2O)[C@](C)(OC)C[C@@H](C)CN[C@H](C)[C@H]2N(CCCCn3cc(-c4cccc(N)c4)nn3)C(=O)O[C@]12C (stereo partly drawn)
## Result 1

// data source = patent US9982005B2
